assay: Protein binding in mouse plasma at 5 uM after 45 mins by LC-MS/MS analysis; type: ADME, cell-free; conditions: read-out: PPB (converted)
ENDPOINT NAME: fraction unbound at 0.75 h, 5 µM
// return just the number, without any unit appended

Check the records and state fraction unbound at 0.75 h, 5 µM for `COc1cc(C(=O)NS(C)(=O)=O)c(F)cc1-c1cnc(Oc2cc(F)ccc2F)c(Cl)c1` 0.014

* * *

assay: Volume of distribution in Harlan rat at 1 mg/kg, iv by LC-MS/MS analysis; assay type: ADME, organism-based; details: in vivo
ENDPOINT NAME: Vd (L/kg)
# value in L/kg; strip the unit string

Check the records and state Vd for `COc1cc(C(=O)NS(C)(=O)=O)c(F)cc1-c1cnc(Oc2cc(F)ccc2F)c(Cl)c1` 0.93

* * *

molecular target: Sodium channel protein type 9 subunit alpha (Homo sapiens, UniProt Q15858); assay: Inhibition of human Nav1.7 expressed in HEK293 cells assessed as use-dependent block at pulse 26 by ionworks quattro electrophysiology assay; assay type: cell-based
Sequence (Q15858 whole entry, the tested form may be a part): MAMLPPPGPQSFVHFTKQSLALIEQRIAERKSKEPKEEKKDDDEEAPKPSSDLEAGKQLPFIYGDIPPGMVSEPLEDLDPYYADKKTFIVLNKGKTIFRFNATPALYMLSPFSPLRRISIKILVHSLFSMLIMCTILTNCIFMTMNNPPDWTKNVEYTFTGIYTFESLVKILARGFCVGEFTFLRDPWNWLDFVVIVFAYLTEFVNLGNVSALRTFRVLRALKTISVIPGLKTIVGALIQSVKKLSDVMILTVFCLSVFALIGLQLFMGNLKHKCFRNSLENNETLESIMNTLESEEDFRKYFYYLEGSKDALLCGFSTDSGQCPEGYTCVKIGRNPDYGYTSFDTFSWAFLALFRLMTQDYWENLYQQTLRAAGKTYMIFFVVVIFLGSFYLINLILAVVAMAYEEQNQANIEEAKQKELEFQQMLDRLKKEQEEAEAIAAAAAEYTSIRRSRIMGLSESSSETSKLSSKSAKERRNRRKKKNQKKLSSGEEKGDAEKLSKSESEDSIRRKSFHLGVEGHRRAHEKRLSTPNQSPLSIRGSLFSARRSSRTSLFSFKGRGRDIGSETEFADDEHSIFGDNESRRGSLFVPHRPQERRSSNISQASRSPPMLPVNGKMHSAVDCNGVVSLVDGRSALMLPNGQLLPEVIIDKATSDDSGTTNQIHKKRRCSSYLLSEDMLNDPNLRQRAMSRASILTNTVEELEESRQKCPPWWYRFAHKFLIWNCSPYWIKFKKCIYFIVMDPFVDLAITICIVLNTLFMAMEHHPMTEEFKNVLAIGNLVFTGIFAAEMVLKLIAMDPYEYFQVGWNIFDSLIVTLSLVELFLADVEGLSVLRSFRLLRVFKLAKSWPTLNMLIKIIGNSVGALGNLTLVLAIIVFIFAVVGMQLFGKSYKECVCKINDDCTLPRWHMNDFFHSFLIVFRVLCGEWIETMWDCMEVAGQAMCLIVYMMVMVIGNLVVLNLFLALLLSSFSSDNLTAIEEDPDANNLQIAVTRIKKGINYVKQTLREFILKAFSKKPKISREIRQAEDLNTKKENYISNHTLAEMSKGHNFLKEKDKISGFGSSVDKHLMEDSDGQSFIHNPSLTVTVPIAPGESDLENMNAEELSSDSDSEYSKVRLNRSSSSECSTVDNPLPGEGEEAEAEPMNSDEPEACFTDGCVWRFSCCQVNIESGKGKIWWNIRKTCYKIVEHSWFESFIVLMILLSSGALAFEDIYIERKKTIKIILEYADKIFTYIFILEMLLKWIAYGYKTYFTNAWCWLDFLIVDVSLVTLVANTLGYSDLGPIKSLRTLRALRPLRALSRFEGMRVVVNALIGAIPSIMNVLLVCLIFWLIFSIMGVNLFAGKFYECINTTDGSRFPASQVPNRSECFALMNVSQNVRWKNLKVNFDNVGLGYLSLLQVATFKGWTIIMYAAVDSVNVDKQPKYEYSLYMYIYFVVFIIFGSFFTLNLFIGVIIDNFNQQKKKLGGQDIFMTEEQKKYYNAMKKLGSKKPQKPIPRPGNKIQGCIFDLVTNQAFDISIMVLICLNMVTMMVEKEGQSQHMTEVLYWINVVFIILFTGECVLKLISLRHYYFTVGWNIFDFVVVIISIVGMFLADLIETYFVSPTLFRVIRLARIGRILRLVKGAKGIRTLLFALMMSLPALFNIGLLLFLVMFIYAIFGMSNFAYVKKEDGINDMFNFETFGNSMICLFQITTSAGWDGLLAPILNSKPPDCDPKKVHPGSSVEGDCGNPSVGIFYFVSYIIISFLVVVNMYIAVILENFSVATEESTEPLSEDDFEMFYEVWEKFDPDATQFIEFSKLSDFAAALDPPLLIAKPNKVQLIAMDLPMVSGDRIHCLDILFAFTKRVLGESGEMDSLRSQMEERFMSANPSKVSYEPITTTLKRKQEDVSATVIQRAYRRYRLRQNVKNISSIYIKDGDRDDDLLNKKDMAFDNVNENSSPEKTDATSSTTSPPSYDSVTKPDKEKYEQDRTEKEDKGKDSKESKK
ENDPOINT NAME: IC50 (nM)
# value in nM; strip the unit string

Check the records and state IC50 for `COc1cc(C(=O)NS(C)(=O)=O)c(F)cc1-c1cnc(Oc2cc(F)ccc2F)c(Cl)c1` 42

* * *

target: Sodium channel protein type 10 subunit alpha (Homo sapiens, UniProt Q9Y5Y9); assay: Inhibition of human Nav1.8 expressed in CHO cells assessed as reduction in peak inward current by manual whole cell patch clamp electrophysiology assay
Sequence (Q9Y5Y9 whole entry): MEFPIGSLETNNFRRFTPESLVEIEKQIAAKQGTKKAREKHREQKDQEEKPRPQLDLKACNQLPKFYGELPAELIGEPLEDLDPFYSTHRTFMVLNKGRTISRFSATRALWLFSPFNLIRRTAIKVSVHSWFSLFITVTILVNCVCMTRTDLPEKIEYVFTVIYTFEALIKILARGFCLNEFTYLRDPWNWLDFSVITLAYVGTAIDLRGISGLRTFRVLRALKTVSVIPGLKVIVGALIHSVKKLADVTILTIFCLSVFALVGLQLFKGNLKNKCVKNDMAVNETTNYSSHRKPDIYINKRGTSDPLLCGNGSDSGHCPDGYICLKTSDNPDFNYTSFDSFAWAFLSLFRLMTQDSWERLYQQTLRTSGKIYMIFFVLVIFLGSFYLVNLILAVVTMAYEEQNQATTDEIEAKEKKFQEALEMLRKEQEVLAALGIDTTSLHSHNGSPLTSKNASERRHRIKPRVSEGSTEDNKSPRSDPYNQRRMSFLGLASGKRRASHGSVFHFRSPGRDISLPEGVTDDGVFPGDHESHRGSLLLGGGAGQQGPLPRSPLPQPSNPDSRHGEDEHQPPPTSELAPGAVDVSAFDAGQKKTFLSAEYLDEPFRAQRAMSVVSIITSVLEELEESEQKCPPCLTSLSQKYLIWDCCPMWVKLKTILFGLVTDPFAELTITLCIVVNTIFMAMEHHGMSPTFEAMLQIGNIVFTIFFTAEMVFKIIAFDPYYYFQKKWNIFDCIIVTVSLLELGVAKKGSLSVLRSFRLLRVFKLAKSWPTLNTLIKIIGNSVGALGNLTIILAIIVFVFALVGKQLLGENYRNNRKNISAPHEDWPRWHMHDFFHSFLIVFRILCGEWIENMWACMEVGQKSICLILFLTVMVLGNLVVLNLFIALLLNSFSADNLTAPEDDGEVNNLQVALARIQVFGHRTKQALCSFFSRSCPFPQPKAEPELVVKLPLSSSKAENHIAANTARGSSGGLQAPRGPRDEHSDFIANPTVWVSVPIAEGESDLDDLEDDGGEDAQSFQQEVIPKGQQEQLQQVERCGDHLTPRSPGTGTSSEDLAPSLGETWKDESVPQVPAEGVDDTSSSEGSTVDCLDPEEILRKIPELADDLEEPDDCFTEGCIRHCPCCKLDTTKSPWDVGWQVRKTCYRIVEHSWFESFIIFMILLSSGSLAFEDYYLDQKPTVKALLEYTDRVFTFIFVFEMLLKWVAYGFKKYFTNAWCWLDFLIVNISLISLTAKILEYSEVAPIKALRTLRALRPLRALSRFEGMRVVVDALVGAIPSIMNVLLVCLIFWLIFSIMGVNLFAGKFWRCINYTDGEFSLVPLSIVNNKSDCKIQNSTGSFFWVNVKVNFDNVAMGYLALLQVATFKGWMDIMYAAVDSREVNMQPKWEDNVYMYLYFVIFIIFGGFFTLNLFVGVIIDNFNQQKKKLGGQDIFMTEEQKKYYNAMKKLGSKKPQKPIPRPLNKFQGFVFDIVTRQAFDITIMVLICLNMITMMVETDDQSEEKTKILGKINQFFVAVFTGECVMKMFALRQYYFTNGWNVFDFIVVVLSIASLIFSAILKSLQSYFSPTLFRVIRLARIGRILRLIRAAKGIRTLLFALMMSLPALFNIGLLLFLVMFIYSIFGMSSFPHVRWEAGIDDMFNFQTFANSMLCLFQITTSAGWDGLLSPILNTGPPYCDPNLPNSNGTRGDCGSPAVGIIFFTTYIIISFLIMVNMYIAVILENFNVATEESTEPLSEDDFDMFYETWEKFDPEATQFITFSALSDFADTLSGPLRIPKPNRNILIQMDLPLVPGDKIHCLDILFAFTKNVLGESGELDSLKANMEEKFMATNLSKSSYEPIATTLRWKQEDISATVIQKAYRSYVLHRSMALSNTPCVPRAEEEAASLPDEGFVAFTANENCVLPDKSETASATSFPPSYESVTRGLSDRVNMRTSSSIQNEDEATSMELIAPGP
ENDPOINT NAME: IC50 (µM)
# value in µM; strip the unit string

Check the records and state IC50 for `COc1cc(C(=O)NS(C)(=O)=O)c(F)cc1-c1cnc(Oc2cc(F)ccc2F)c(Cl)c1` 15.6

* * *

molecular target: Cytochrome P450 3A4 (Homo sapiens, UniProt P08684)
Sequence (P08684 whole entry): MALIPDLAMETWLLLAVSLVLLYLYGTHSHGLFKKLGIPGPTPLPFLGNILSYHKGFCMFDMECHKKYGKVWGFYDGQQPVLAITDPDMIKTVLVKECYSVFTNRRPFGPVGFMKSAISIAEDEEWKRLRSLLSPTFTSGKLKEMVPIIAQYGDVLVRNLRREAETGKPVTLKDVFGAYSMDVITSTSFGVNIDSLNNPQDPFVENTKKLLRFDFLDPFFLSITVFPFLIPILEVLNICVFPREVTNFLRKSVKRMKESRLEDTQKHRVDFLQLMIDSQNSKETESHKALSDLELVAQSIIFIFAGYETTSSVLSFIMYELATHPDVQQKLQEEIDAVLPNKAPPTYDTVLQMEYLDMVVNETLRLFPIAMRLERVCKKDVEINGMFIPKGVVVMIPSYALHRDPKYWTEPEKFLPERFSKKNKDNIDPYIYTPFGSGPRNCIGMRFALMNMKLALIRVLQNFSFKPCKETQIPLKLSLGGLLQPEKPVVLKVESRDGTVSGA
ENDPOINT NAME: IC50 (µM)
# value in µM; strip the unit string

Print Cytochrome P450 3A4 (Homo sapiens, UniProt P08684) IC50 for `CC(C)COc1ncc(-c2cc(F)c(C(=O)NS(C)(=O)=O)cc2F)cc1Cl` . 48.6

* * *

target: Sodium channel protein type 9 subunit alpha (Homo sapiens, UniProt Q15858); assay: Displacement of [3H]-6,6-fused heteroaryl-sulfonamide derivative from human Nav1.7 expressed in HEK293 cell membranes preincubated for 30 mins followed by radioligand addition measured after 1 hr by scintillation counting analysis
ENDPOINT NAME: pIC50
Please report pIC50 as the negative decimal logarithm of the molar concentration, giving only the number.

Check the records and state pIC50 for `COc1cc(C(=O)NS(C)(=O)=O)c(F)cc1-c1cnc(Oc2cc(F)ccc2F)c(Cl)c1` 7.77

* * *

experiment: physchem; details: fasted state simulated intestinal fluid, pH 6.8
ENDPOINT NAME: solubility thermodynamic at 24 h (µM)
# value in µM; strip the unit string

Check the records and state solubility thermodynamic at 24 h for `COc1cc(C(=O)NS(C)(=O)=O)c(F)cc1-c1cnc(Oc2cc(F)ccc2F)c(Cl)c1` 500

* * *

Quick list: IC50 per entry.
target: Sodium channel protein type 9 subunit alpha (Homo sapiens, UniProt Q15858); assay: Inhibition of human Nav1.7 expressed in HEK293 cells incubated for 3 to 5 mins at -125 mV holding potential by electrophysiology assay; format: cell-based
# value in nM; strip the unit string

CC(C)COc1ncc(-c2ccc(C(=O)NS(C)(=O)=O)cc2Cl)cc1Cl
290

Check the records and state IC50 for `CC(C)COc1ncc(-c2ccc(C(=O)NS(C)(=O)=O)cc2C#N)cc1Cl` 1620

Check the records and state IC50 for `CC(C)COc1ncc(-c2c(F)cc(C(=O)NS(C)(=O)=O)cc2F)cc1Cl` 1240

Check the records and state IC50 for `CC(C)COc1ncc(-c2ccc(C(=O)NS(C)(=O)=O)cc2C(F)(F)F)cc1Cl` 270

Check the records and state IC50 for `COc1cc(C(=O)NS(C)(=O)=O)ccc1-c1cnc(Oc2cc(Cl)cc(Cl)c2)c(Cl)c1` 36

Check the records and state IC50 for `CC(C)COc1ncc(-c2ccc(C(=O)NS(C)(=O)=O)cc2OC(F)(F)F)cc1Cl` 140

Check the records and state IC50 for `CS(=O)(=O)NC(=O)c1ccc(-c2ccc(Cl)c(Cl)c2)cc1` 10700
